Molecular target: BRAF G469A (Homo sapiens, UniProt P15056, G469A)
Construct: Horizon Discovery (HCT-116 BRAF−/− cells); host or cells: HCT-116 BRAF−/− cells, clone 34, lentiviral transduction
Sequence (P15056 whole entry G469A): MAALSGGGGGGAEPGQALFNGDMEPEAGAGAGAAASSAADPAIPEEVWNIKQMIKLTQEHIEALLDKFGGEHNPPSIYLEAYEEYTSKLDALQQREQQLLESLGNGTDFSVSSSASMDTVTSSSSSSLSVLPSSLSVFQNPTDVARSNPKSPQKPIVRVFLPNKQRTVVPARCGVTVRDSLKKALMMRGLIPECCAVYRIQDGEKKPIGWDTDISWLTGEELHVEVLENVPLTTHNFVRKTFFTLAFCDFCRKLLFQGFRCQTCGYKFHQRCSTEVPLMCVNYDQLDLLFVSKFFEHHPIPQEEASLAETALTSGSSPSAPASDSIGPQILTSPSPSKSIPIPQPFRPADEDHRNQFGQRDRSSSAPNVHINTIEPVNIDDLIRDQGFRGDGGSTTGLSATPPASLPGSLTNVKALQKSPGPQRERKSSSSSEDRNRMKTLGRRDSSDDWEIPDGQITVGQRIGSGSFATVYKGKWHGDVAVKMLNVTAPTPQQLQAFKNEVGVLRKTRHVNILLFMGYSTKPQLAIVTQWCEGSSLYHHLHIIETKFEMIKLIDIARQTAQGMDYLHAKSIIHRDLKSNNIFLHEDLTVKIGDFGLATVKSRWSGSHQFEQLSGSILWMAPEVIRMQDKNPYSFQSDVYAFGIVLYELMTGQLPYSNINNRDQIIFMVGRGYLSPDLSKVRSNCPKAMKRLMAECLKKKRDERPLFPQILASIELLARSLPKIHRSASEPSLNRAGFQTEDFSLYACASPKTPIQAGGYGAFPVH
Test: BRAF HiBiT degradation assay, C-terminal HiBiT-tagged BRAF G469A overexpressed in HCT-116 BRAF−/− cells (clone 34), Nano-Glo HiBiT Lytic assay
Type: cell-based
Conditions: BRAF G469A (Class 2), HCT-116 BRAF−/− cells; observed Dmax relative to DMSO control
Measured property: Dmax

// solved cases for Dmax follow
Molecule: C[C@@H]1CN(c2ccc(-n3cc(-c4cc(Cl)cc(NS(=O)(=O)N5CCCC5)c4F)c(-c4ccncc4)n3)nc2)CCN1CC1CCN(c2ccc(N3CCC(=O)NC3=O)cc2)CC1
Dmax: 30 to 70%

Molecule: O=C1CC[C@H](c2ccc(N3CCC(CN4CCN(c5ccc(-n6cc(-c7cc(Cl)cc(NS(=O)(=O)N8CC[C@@H](F)C8)c7F)c(-c7ccncc7)n6)nc5)CC4)CC3)nc2)C(=O)N1
Dmax: > 70%

Molecule: O=C1CCN(c2ccc(N3CCC(CN4CCN(c5ccc(-n6cc(-c7cc(Cl)cc(NS(=O)(=O)N8CC[C@@H](F)C8)c7F)c(-c7ccncc7)n6)c(F)c5)CC4)CC3)nc2)C(=O)N1
Dmax: 30 to 70%

Molecule: O=C1CC[C@H](c2ccc(N3CCC(CN4CCN(c5ccc(-n6cc(-c7cc(Cl)cc(NS(=O)(=O)N8CCCC8)c7F)c(-c7ccncc7)n6)cc5)CC4)CC3)cc2)C(=O)N1
Dmax: 30 to 70%

Molecule: O=C1CCN(c2ccc(N3CCC(CN4CCN(c5ccc(-n6cc(-c7cc(Cl)cc(NS(=O)(=O)N8CC[C@@H](F)C8)c7F)c(-c7ccncc7)n6)cc5)CC4)CC3)cc2)C(=O)N1
Dmax: 30 to 70%

Just so you know, measured Dmax for O=C1CC[C@H](c2ccc(N3CCC(CN4CCN(c5ccc(-n6cc(-c7cc(Cl)cc(NS(=O)(=O)N8CCCC8)c7F)c(-c7ccncc7)n6)nc5)CC4)CC3)nc2)C(=O)N1 came out at > 70%
